MEASURE: melting point (°C)
Report the figure in °C without appending any unit label.

Query melting point for Cc1ncnn1-c1cc(F)ccc1CNC(=O)c1nc2n(c(=O)c1O)CCN2C(C)C
212

// Input: COCCN1CCn2c1nc(C(=O)NCc1ccc(F)cc1)c(O)c2=O . Output its melting point only.
166

Annotate the compound CCCCN1CCn2c1nc(C(=O)NCc1ccc(F)cc1-n1cnc(C)n1)c(O)c2=O with its measured melting point.
214

Give the reported value of melting point for this record: O=C(NCc1ccc(F)cc1)c1nc2n(c(=O)c1O)CCN2CCO
203

State its melting point: O=C(NCc1ccc(F)cc1)c1nc2n(c(=O)c1O)CCN2Cc1ccccc1
225

Tell me its melting point given CN1CCn2c1nc(C(=O)NCc1ccc(F)cc1)c(O)c2=O as the entry.
212

Cited source for all entries: patent US7494984B2
